FYI, the data here is from PubChem BioAssay (NCI).

System: HOP-62 NSCLC
Assay: NCI-60 one-dose screen, 48 h
Conditions: 10 µM
Compounds without any hit were thinned out: in the full panel of roughly 83,000, 20% have a hit. Active and inactive are the calls of the source. Rule for the calls: active = growth percent below 10; inactive = the rest.
Classes used: active, inactive

LINE NOTATION	MEASURED ON	CLASS ASSIGNMENT
COc1cc(/C=C/C(=O)c2cc(-c3ccc(F)cc3)ccc2O)cc(OC)c1OC	HOP-62 NSCLC	inactive
Cc1noc(C)c1-c1ccc2nc(NC(=O)[C@H]3CCN(C#N)C3)cn2c1	HOP-62 NSCLC	inactive
COc1ccc(/C=C2\SC(=S)N(CCCN3CCOCC3)C2=O)c(OC)c1	HOP-62 NSCLC	inactive
CCCn1c(=O)c2c(nc(-c3cccc(OCCCCl)c3)n2C)n(CCC)c1=O	HOP-62 NSCLC	active
CCCCCCCCCCCCCCCC(=O)N1CCN(C)CC1	HOP-62 NSCLC	inactive
Cc1nc2cc(-n3c(-c4ccc(F)cc4)nc4ccccc4c3=O)ccc2n1Cc1ccccc1	HOP-62 NSCLC	inactive
CCc1ccc(-c2nnc(COc3ccc(-c4nc5cc(Cl)c(Cl)cc5[nH]4)cc3OC)o2)cc1	HOP-62 NSCLC	inactive
COc1c(C)c(C)c(OC)c2c1[nH]c(=O)c1c3cccnc3cn21	HOP-62 NSCLC	inactive
O=C(NNC(=O)c1ccncc1)Nc1ccc([N+](=O)[O-])cc1	HOP-62 NSCLC	inactive
Cc1ccc2c(c1)-c1cc(C)nn1-c1ccc(C#N)cc1O2	HOP-62 NSCLC	inactive

* * *

Tested on: MDA-MB-435 melanoma
Assay: NCI-60 one-dose screen, 48 h
Details: 10 µM
The panel holds about 83,000 compounds, 20% with a hit somewhere; the sample as a whole holds those more often. Activity calls are given as the source filed them. How the source made its calls: active means growth percent below 10; inactive means the rest.
Classes used: active, inactive

COMPOUND	CLASS ASSIGNMENT
Cn1c(=O)c2[nH]c(C(O)c3ccc(Cl)cc3)nc2n(C)c1=O (configuration not stated)	inactive
CCNC1(NC#N)CCCCC1	inactive
CC(C)C[C@H](NC(=O)CCn1ccc2ccccc2c1=O)B(O)O	active
Cc1cc(OI)c(C(C)C)cc1-c1cc(C(C)C)c(OI)cc1C	inactive
COc1ccc(C2C=C(c3ccc(Cl)c(Cl)c3)N=C3SC(C)=CN32)cc1 (configuration not stated)	inactive
Cc1ccccc1[P+](Cc1ccccc1)(c1ccccc1)c1ccccc1	active
COc1ccc(C(C)=O)cc1N1C(=O)C2C(C1=O)C1(c3ccccc3)C(=O)C2(c2ccccc2)C(c2ccc(C)cc2)=C1c1ccc(C)cc1 (configuration not stated)	inactive
Nc1ncc(-c2ccc(C(F)(F)F)cc2)c(NC2CCCCCC2)n1	inactive
COc1ccc(-c2csc(NC(=O)CO[N+](=O)[O-])n2)cc1	inactive
CC(=O)Nc1nc(C)c(C(=O)N/N=C/c2cccn2C)s1	inactive
Cc1cnc(C=O)c2cccc([N+](=O)[O-])c12	inactive
O=C(NNc1nc(N2CCCC2)nc(N2CCCC2)n1)c1ccccc1	inactive
COc1cccc(C(=O)NNc2nc(N3CCOCC3)nc(N3CCN(C(c4ccccc4)c4ccccc4)CC3)n2)c1	inactive
O=C(c1ccc(Cl)cc1)c1no[n+]([O-])c1C(=O)c1ccc(Cl)cc1	inactive
Cc1ccc(-c2cc(C(=O)Nc3ccc(S(=O)(=O)N4CCCCC4)cc3)[nH]n2)c(O)c1	inactive
COc1cccc2c1C(=O)c1c(O)c3c(c(O)c1C2=O)C[C@@](O)(C(=O)COC(=O)c1ccccc1)C[C@@H]3OC1CC(N)C(O)C(C)O1 (some centres not stated)	active
O=C1CC[C@@H](C(=O)N[C@H]2CSSC[C@@H](C(=O)NCCc3ccccc3)NC(=O)[C@H](Cc3ccccc3)NC(=O)[C@@H]3CCCN3C(=O)[C@@H]3CCCN3C2=O)N1	inactive
COc1ccc2nc(/C=C/c3ccc(N(C)C)cc3)sc2c1	inactive
COc1ccc(-c2nnc(COc3ccc(NC(=O)Nc4ccccc4)cc3F)o2)cc1	inactive
COc1cccc2c1O/C(=C\c1ccc([N+](=O)[O-])s1)C2=O	inactive
CCOC(=O)c1cc(-c2ccccc2)nc(N)n1	inactive
O=[N+]([O-])c1ccc(-c2nc(Cl)c3c(n2)CCCC3)o1	inactive
O=C1/C(=C/c2ccc(O)cc2)CSc2ccc(Cl)cc21	inactive
CCOC(=O)CSC(=S)SCC(=O)OCC	inactive
COc1ccc2c(c1)/C(=C/c1cc(OC)c(OC)c(OC)c1)C(=O)N2C	active
Fc1ccc2[nH]c3c(NCCCN4CCOCC4)ncnc3c2c1	inactive
Nc1c(C(=O)Nc2ccccc2F)sc2nc3c(cc12)C(=O)CCC3	active
CC1(C)Cc2c(cn(Cc3ccccc3)c2-c2ccccc2)-c2oncc21	inactive
COc1ccc(-c2[nH]ncc2-c2cc(OC)c(OC)c(OC)c2)cc1	active
COc1ccc(-c2n/c(=C\c3c(O)[nH]c4ccccc34)cc3c2=Nc2ccccc2-3)cc1	active
NC(N)=NS(=O)(=O)c1ccc(Nc2ccc3nnc(-c4ccncc4)n3n2)cc1	inactive
O=c1cc(CSc2nnc(-c3ccccc3)n2-c2ccc(F)cc2)c2ccc3ccccc3c2o1	inactive
O=S(=O)(O)C1(O)CCCCC1	inactive
CCOc1cc(Br)c(C(C)NC(=O)c2cccc(OC)c2)cc1OCC (configuration not stated)	active
O=C(OCc1ncc(-c2ccc(C(F)(F)F)cc2)c(NC2CCCCCC2)n1)c1c(F)c(F)c(F)c(F)c1F	inactive
COc1ccc(-c2ccccc2)cc1C(=O)c1ccc(-c2ccccc2)cc1	active
CCOC(=O)c1c(O)c2cc(-c3ccccc3)nc(OCC)c2c(=O)n1C	inactive
C#C[C@]1(O)CC[C@H]2[C@@H]3CC[C@H]4CC(F)(F)CC[C@]4(C)[C@H]3CC[C@@]21C	inactive
CCSc1nc2c([nH]1)c(=O)n(C)c(=S)n2C	inactive
CC(=O)Nc1nc(C)c(C(=O)NNC=O)s1	inactive
NC(=O)C1CCCN(Cc2c[nH]c3ccccc23)C1 (configuration not stated)	inactive
Cc1nc2cc(-n3c(-c4ccc(F)cc4)nc4ccccc4c3=O)ccc2n1Cc1ccccc1	active
